- TARGET OF ASSAY: Farnesyl pyrophosphate synthase (Homo sapiens, UniProt P14324)
- Sequence (P14324 whole entry): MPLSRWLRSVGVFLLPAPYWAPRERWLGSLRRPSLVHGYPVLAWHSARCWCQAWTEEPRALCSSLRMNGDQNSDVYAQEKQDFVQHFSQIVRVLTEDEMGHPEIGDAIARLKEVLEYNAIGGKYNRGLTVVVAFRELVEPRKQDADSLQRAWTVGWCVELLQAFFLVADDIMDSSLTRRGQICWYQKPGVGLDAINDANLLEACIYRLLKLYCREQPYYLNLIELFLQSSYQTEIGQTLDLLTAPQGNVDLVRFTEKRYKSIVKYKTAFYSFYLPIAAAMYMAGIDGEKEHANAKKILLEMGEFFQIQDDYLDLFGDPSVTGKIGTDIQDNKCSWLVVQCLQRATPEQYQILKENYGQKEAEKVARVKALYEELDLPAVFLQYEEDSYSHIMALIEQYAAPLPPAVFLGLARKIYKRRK
- PROTOCOL DESCRIPTION: Binding affinity to FPPS (unknown origin) expressed in Escherichia coli BL21(DEscherichia ) assessed as binding constant of proton H12 of isopentenylic moiety by saturation transfer difference NMR analysis
MEASURED ATTRIBUTE: Kd (µM)
Numbers only, in µM.

Given the compound CC(C)=CCNc1ncnc2c1ncn2[C@@H]1O[C@H](CO)[C@@H](O)[C@H]1O , what is its reported Kd? 2210
